- tested.system: human PPAR-gamma receptor (Homo sapiens)
- Sequence (P37231 whole entry): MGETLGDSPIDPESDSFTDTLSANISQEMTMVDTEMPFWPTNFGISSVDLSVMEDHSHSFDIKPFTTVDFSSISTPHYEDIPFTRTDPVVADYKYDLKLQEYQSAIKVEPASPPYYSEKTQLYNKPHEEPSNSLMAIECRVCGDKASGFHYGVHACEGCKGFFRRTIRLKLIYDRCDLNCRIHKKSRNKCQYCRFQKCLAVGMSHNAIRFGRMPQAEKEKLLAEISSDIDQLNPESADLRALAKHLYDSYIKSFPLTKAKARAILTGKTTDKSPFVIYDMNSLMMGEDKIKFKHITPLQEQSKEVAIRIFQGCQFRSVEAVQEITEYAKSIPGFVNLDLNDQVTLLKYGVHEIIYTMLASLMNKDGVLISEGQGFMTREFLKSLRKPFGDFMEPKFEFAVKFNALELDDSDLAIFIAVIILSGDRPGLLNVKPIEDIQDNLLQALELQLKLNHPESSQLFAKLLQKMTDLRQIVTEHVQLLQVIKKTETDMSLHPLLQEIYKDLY
- measurement.notes: Cell transfection and luciferase reporter gene assay, PPAR-gamma activation in MCF-7 cells
- details: luciferase reporter, 16 h treatment
- Experimental: The reporter gene assay is an in vitro method used to determine and quantify the existence of physical interactions between proteins, useful for confirming in this case the interaction of the transcription factors PPAR-alpha with co-activator SRC-1, and PPAR-gamma with PPRE in MCF-7 cells. For the in vitro experiments, with cell culture all the compounds were dissolved and diluted in dimethylsulfoxide (DMSO) (Sigma Aldrich Spain). […]
endpoint: EC50 (nM)

CC(C)(C)c1ccc(CNC(=O)c2ccc(NC(=O)c3cccc(CN4C(=O)OC[C@H]4Cc4ccccc4)c3)cc2)cc1 ... 1290
CCCCCNC(=O)c1ccc(NC(=O)c2cccc(CN3C(=O)OC[C@H]3Cc3ccccc3)c2)cc1 ... 1620
